tested on: M14; experiment: NCI tumour cell line growth inhibition, 48 h
The source made the active and inactive calls. No stated cut-off is given here; in the data, active = GI50 up to about 1.1 µM and inactive = higher.
Recorded Metric: GI50

molecule="COc1ccc(C(=O)C(c2ccc(OC)cc2)C2C(=O)Oc3ccccc32)cc1 (stereo unspecified)" recorded_metric=GI50 obs_value="> 10 µM (inactive)"
molecule=O=C(Nc1ccccc1C(=O)O)C(=Cc1ccccc1O)NC(=O)c1ccccc1 recorded_metric=GI50 obs_value="> 100 µM (inactive)"
molecule=C/C(=N\NS(=O)(=O)c1ccc(C)cc1)P(=O)(O)O recorded_metric=GI50 obs_value="> 100 µM (inactive)"
molecule=O=C(O)COc1ccccc1C(=O)Nc1ccccc1 recorded_metric=GI50 obs_value="> 100 µM (inactive)"
molecule="CCOC(=O)C1c2[nH]c3ccccc3c2CCN1C(=O)c1ccc(OC)o1 (stereo unspecified)" recorded_metric=GI50 obs_value="> 10 µM (inactive)"
molecule="CSc1ncnc2c1cnn2Cc1cnnn1COCC(O)CO (stereo unspecified)" recorded_metric=GI50 obs_value="> 100 µM (inactive)"

---

test system: SW-620; test: NCI tumour cell line growth inhibition, 48 h
The source made the active and inactive calls. No stated cut-off is given here; in the data, active = GI50 up to about 1.1 µM and inactive = higher.
Recorded Metric: GI50

compound=COC(=O)CC(=O)C[P+](c1ccccc1)(c1ccccc1)c1ccccc1 experimental_system=SW-620 recorded_metric=GI50 obs_value="121 µM (inactive)"
compound="NC(CO)c1ccc(OCc2ccccc2)cc1 (stereo not given)" experimental_system=SW-620 recorded_metric=GI50 obs_value="38.8 µM (inactive)"
compound=CCOC(=O)NN1C(=O)C(=P(c2ccccc2)(c2ccccc2)c2ccccc2)C(C(=O)OCC)=C1C experimental_system=SW-620 recorded_metric=GI50 obs_value="> 100 µM (inactive)"
compound=CCCCCCCC/C=C\CCCCCCCC(=O)NCCN(CCN)C(=O)CCCCCCC/C=C\CCCCCCCC experimental_system=SW-620 recorded_metric=GI50 obs_value="> 100 µM (inactive)"
compound=Cc1c(NC(=S)NN)c(=O)n(-c2ccccc2)n1C experimental_system=SW-620 recorded_metric=GI50 obs_value="> 100 µM (inactive)"
compound=COc1ccc2[nH]cc(CCNC(=O)[C@H](Cc3ccccc3)NC(=O)[C@@H](NCC(F)(F)F)C(C)C)c2c1 experimental_system=SW-620 recorded_metric=GI50 obs_value="28.5 µM (inactive)"
compound=C#C[C@]1(O)CC[C@H]2[C@@H]3CCC4=C/C(=N/NC(=O)c5cccc6cc7ccccc7nc56)CC[C@@H]4[C@H]3CC[C@@]21CC experimental_system=SW-620 recorded_metric=GI50 obs_value="> 100 µM (inactive)"
compound=COc1ccccc1NC(=O)c1nc2ccc([N+](=O)[O-])cc2nc1C experimental_system=SW-620 recorded_metric=GI50 obs_value="> 100 µM (inactive)"
compound=O=Cc1ccc2ccocc1-2 experimental_system=SW-620 recorded_metric=GI50 obs_value="> 100 µM (inactive)"
compound=O=C(O)C(Cl)(c1ccccc1)c1ccccc1 experimental_system=SW-620 recorded_metric=GI50 obs_value="> 100 µM (inactive)"
compound="C=C1CCC23CC(CC[C@@H]2[C@@]12C[C@@H](c1ccoc1)OC2=O)OC3=O (stereo not given in full)" experimental_system=SW-620 recorded_metric=GI50 obs_value="> 100 µM (inactive)"
compound="Cc1cc2nc3ccc(N(C)C)cc3[s+]c2cc1N [TOLONIUM CHLORIDE]" experimental_system=SW-620 recorded_metric=GI50 obs_value="2.86 µM (inactive)"
compound=COC(=O)Nc1nc2cc(S(=O)(=O)n3nnc4ccccc43)ccc2[nH]1 experimental_system=SW-620 recorded_metric=GI50 obs_value="> 100 µM (inactive)"
compound=CC(=O)C(=Cc1cn(C)c(=O)n(C)c1=O)C(C)=O experimental_system=SW-620 recorded_metric=GI50 obs_value="106 µM (inactive)"
compound="CC1=CC[C@@]2(C)CC[C@](O)(C(C)C)C2C(OC(=O)c2ccccc2)C1 (stereo not given in full)" experimental_system=SW-620 recorded_metric=GI50 obs_value="22.3 µM (inactive)"
compound="CC[C@@]1(O)C[C@H](OC2CC(N(C)C)C(OC3CC(O)C(OC4CCC(=O)C(C)O4)C(C)O3)C(C)O2)c2c(cc3c(c2O)C(=O)c2c(O)ccc(O)c2C3=O)[C@H]1C(=O)OC (stereo not given in full)" experimental_system=SW-620 recorded_metric=GI50 obs_value="5.2e-05 µM (active)"
compound="CCCC/C=C1\\CCC(CN2CCOCC2)C1=O (stereo not given)" experimental_system=SW-620 recorded_metric=GI50 obs_value="2.1 µM (inactive)"
compound=COc1ccc(-c2c(N)n(-c3cccc(C(=O)O)c3)c(=O)c3cc([N+](=O)[O-])ccc23)cc1 experimental_system=SW-620 recorded_metric=GI50 obs_value="> 100 µM (inactive)"
compound="OCC(O)C(O)C(O)C(/C=N\\Nc1ncnc2ccc(Br)cc12)=N/Nc1ncnc2ccc(Br)cc12 (stereo not given)" experimental_system=SW-620 recorded_metric=GI50 obs_value="6.62 µM (inactive)"
compound=Cc1cc(C#N)c(Nc2c(C)cccc2[N+](=O)[O-])s1 experimental_system=SW-620 recorded_metric=GI50 obs_value="> 100 µM (inactive)"

---

system: SK-MEL-2; test: NCI tumour cell line growth inhibition, 48 h
Activity calls are given as the source filed them. Cut-off read from the data, not from the text of the source: active = GI50 up to about 1.1 µM and inactive = higher.
Recorded Metric: GI50

molecule=O=C(O)c1cc2ccc(Cl)cc2c(O)c1C1=CCCCC1 experimental_system=SK-MEL-2 obs_value="19.9 µM (inactive)"
molecule=C#CCn1c(I)cc2c(c1=O)COC(=O)[C@]2(O)CC experimental_system=SK-MEL-2 obs_value="> 100 µM (inactive)"
molecule=CCOc1ccc2c(c1)[n+]([O-])c(-c1ccccc1Cl)c(N)[n+]2[O-] experimental_system=SK-MEL-2 obs_value="> 100 µM (inactive)"
molecule=CN(C)c1ccc(/C=C/c2ccc3ccccc3[n+]2C)cc1 experimental_system=SK-MEL-2 obs_value="1.48 µM (inactive)"
molecule="Cc1cc(S(=O)(=O)NC2=NNC(C)CN2)c(S)cc1Cl (stereo unspecified)" experimental_system=SK-MEL-2 obs_value="21 µM (inactive)"
molecule=CN(C)CCc1ccc(Cl)cc1Cl experimental_system=SK-MEL-2 obs_value="> 100 µM (inactive)"
molecule=O=C(O)CNn1c(SCC(=O)O)nnc(/C=C/c2c(O)ccc3ccccc23)c1=O experimental_system=SK-MEL-2 obs_value="61.8 µM (inactive)"
molecule=O=C(CN1CCCCC1)c1ccc2c(c1)Sc1ccccc1O2 experimental_system=SK-MEL-2 obs_value="18.7 µM (inactive)"
molecule="COC(=O)/C(=N/O)C(C(=O)OC)C(=O)C(=O)Nc1c(Cl)cc(C)cc1S(=O)(=O)O (stereo unspecified)" experimental_system=SK-MEL-2 obs_value="> 100 µM (inactive)"
molecule=CCCCCCc1cn([C@H]2C[C@H](O)[C@@H](CO)O2)c(=O)[nH]c1=O experimental_system=SK-MEL-2 obs_value="> 100 µM (inactive)"
molecule="O=C(c1ccccc1)C1C[C@H]2CO[C@H](c3ccccc3)N2C1=O (stereo partly specified)" experimental_system=SK-MEL-2 obs_value="> 100 µM (inactive)"

---

test system: NCI-H23; experiment: NCI tumour cell line growth inhibition, 48 h
Calls of active or inactive are those of the source. Rule as the data show it: active = GI50 up to about 1.1 µM and inactive = higher.
Recorded Metric: GI50

compound=COc1cc(C)c(C(=O)/C=C/c2cc(OC)c(O)c(OC)c2)cc1O experimental_system=NCI-H23 recorded_metric=GI50 obs_value="12.2 µM (inactive)"
compound=Cc1cc(C#N)c(Nc2c(C)cccc2[N+](=O)[O-])s1 experimental_system=NCI-H23 recorded_metric=GI50 obs_value="39.7 µM (inactive)"
compound=O=Cc1ccc2ccocc1-2 experimental_system=NCI-H23 recorded_metric=GI50 obs_value="> 100 µM (inactive)"
compound="CSc1ncnc2c1cnn2Cc1cnnn1COCC(O)CO (stereo not given)" experimental_system=NCI-H23 recorded_metric=GI50 obs_value="> 100 µM (inactive)"
compound=COC(=O)CC(=O)C[P+](c1ccccc1)(c1ccccc1)c1ccccc1 experimental_system=NCI-H23 recorded_metric=GI50 obs_value="141 µM (inactive)"

---

system: RXF 393; test: NCI tumour cell line growth inhibition, 48 h
Activity calls are given as the source filed them. No stated cut-off is given here; in the data, active = GI50 up to about 1.1 µM and inactive = higher.
Recorded Metric: GI50

compound="COc1cc(/C=C2\\C(=O)N(c3cc(Cl)ccc3Cl)C(c3ccccc3)S2(=O)=O)cc(OC)c1OC (centres undefined)" obs_value="> 100 µM (inactive)"
compound=O=C1N[C@@H]2c3c(csc3Br)C(=O)[C@@H]2O1 obs_value="15.5 µM (inactive)"
compound=O=c1oc2c(ccc3occc32)c(N2CCCCC2)c1-c1ccccc1 obs_value="> 64.3 µM (inactive)"
compound="O=C(c1ccccc1)C1C[C@H]2CO[C@H](c3ccccc3)N2C1=O (some centres undefined)" obs_value="> 100 µM (inactive)"
compound=CCNC(=S)N/N=C1\C(=O)Nc2ccc([N+](=O)[O-])cc21 obs_value="26 µM (inactive)"
compound=Cc1cc(C#N)c(Nc2c(C)cccc2[N+](=O)[O-])s1 obs_value="16.4 µM (inactive)"
compound=O=C(/C=C1\C[C@H]2C=Nc3ccccc3C(=O)N2C1)NCCCCCNC(=O)/C=C1\C[C@H]2C=Nc3ccccc3C(=O)N2C1 obs_value="3.56 µM (inactive)"
compound="CCCCNC(=O)C1C2CCC(O2)C1C(=O)O (centres undefined)" obs_value="2.07 µM (inactive)"
compound="CCC1(N)C(=O)OCc2c1cc1n(c2=O)Cc2cc3ccccc3nc2-1 (centres undefined)" obs_value="13.4 µM (inactive)"
